Overview of reported pIC50 across a group of compounds:
molecular target: Glutamate NMDA receptor; Grin1/Grin2c (Rattus norvegicus, UniProt P35439+Q00961); experiment: In vitro inhibitory concentration against NMDA responses at NR1A/2C receptors expressed in Xenopus oocytes
Sequence (Q00961 whole entry, other chains not shown): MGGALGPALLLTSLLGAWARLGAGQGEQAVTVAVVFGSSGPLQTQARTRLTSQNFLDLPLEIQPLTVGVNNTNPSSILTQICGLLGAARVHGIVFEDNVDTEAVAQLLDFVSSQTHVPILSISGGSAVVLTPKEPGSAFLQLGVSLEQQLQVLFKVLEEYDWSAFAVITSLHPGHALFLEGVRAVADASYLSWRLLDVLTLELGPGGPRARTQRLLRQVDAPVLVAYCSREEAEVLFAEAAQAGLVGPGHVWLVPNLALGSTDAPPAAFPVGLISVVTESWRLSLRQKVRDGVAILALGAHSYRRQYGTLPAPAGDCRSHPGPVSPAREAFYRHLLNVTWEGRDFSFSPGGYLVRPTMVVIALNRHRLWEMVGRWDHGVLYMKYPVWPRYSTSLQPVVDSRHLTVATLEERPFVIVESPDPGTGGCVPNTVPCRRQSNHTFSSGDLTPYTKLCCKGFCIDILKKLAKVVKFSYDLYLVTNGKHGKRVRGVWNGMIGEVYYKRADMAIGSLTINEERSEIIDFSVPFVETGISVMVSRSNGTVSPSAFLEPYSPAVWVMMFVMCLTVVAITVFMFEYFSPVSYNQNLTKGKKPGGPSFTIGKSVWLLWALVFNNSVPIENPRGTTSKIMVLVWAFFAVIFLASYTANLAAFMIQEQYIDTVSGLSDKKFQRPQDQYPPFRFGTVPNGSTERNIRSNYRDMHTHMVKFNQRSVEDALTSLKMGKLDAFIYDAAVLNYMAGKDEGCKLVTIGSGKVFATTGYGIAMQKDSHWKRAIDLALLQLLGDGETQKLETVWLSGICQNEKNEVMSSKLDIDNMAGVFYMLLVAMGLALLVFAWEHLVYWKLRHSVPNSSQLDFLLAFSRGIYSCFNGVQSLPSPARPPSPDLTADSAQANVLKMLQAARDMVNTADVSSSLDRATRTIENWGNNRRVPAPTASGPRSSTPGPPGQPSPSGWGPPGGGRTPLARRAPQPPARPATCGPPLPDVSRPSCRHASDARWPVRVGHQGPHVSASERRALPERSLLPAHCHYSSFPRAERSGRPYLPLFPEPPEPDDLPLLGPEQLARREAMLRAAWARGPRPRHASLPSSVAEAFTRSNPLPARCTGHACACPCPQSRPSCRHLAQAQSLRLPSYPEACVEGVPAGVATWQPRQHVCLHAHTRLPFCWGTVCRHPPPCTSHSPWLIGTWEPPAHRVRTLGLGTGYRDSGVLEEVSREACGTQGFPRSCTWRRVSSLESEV
pIC50: −log10 of the molar value.

Below are worked cases with known answers.
Cc1ccc(CC2(O)CCN(CCOc3ccc(O)cc3)CC2)cc1
< 4.00
Oc1ccc(OCCN2CCC(c3ccccc3)CC2)cc1
< 4.00
OC(CN1CCC(Cc2ccc(F)cc2)CC1)c1ccc(Cl)cc1 (configuration not stated)
4.00
c1ccc(CC2CCN(CCOc3ccccc3)CC2)cc1
< 4.00
Oc1ccc(OCCN2CCC(Cc3ccccc3)CC2)cc1
< 4.00

Lab note: Cc1ccc(CC2CCN(CCOc3ccc(O)cc3)CC2)cc1 gave pIC50 of < 4.00

Kindly note the recorded pIC50 for Oc1ccc(OCCN2CCC(Cc3ccc(F)cc3)CC2)cc1 , which is < 4.00

###

target: Glutamate NMDA receptor; Grin1/Grin2b (Rattus norvegicus, UniProt P35439+Q00960); experiment: In vitro inhibitory concentration against NMDA responses at NR1A/2B receptors expressed in Xenopus oocytes
Sequence (Q00960 whole entry, other chains not shown): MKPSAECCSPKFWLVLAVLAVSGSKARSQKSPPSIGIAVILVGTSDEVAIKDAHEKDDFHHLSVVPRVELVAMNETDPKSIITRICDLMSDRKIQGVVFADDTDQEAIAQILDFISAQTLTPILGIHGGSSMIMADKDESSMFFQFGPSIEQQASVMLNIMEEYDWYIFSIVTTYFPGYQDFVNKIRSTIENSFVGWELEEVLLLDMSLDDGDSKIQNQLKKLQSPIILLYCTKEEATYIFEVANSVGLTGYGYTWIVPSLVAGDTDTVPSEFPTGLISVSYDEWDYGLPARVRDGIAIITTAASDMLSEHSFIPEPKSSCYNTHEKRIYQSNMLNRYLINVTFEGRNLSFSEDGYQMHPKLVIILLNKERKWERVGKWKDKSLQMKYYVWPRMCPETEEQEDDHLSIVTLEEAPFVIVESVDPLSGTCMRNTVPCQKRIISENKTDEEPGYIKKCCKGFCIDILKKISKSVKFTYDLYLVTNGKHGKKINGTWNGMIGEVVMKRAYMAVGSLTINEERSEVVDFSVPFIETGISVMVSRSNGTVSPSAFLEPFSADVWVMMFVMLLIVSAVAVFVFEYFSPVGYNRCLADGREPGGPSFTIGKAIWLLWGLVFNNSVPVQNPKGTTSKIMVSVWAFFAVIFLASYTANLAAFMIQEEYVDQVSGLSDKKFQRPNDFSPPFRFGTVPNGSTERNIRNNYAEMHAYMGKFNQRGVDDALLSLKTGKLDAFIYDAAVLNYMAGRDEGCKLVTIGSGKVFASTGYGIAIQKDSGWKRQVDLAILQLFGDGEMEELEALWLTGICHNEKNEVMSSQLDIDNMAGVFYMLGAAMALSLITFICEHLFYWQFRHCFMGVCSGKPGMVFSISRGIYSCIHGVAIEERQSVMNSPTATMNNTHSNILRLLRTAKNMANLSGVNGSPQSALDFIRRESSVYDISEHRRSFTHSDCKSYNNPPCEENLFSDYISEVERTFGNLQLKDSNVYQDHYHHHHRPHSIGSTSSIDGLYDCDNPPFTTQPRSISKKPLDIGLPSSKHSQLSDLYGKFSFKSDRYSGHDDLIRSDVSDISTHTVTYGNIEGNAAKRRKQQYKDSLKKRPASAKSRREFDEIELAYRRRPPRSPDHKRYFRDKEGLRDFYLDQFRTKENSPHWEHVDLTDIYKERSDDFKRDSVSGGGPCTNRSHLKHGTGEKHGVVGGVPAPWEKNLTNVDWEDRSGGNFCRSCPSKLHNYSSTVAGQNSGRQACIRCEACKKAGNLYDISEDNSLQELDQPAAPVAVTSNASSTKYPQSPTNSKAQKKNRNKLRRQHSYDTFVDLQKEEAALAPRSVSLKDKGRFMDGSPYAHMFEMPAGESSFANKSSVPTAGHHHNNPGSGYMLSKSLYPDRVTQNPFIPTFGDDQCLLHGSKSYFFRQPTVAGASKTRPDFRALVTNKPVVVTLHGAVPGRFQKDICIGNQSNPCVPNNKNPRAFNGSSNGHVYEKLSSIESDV
pIC50: −log10 of the molar value.
Measured quantity: pIC50

Worked set:
Cc1ccc(CC2CCN(CCOc3ccc(O)cc3)CC2)cc1
7.55
Oc1ccc(OCCN2CCC(Cc3ccc(F)cc3)CC2)cc1
7.30

a. Oc1ccc(OCCN2CCC(Cc3ccccc3)CC2)cc1
b. Cc1ccc(CC2(O)CCN(CCOc3ccc(O)cc3)CC2)cc1
[Q] // which entry has the larger pIC50 value, a or b ? Your answer should be the label attached to the chosen record.
[A] a
(a: 7.60, b: 7.37)
